Assay: basal HepG2 mitochondrial membrane potential changes, profiling panel, cell-based, JC-1 fluorescence, 24 h, 100 nL compound (AID 1167); also: test concentration not given here
Conditions: higher = more signal
VALUE_KIND: z-score

Known z-score results, listed for orientation:
CO[C@@H]1COC(=O)[C@H](C)NC(=O)CC=C[C@@H](C)[C@H](NS(=O)(=O)c2ccc(C)cc2)COC(=O)CC=C[C@@H]1C = 0.596
O=C1c2ccccc2[C@](Cc2ccccc2I)(C(=O)NCC(F)(F)F)[C@H](c2ccc(CO)cc2)N1Cc1ccccc1C(F)(F)F = 0.535

## Input Which z-score is reported for this compound? C=CCC(OC(C)=O)[C@@H]1[C@@H](N(Cc2ccc(-c3cccc(C(F)(F)F)c3)o2)C(=O)Cc2ccc(F)cc2)c2cc(OCCCO)ccc2N1C(=O)c1ccc(-c2ccccc2)cc1 (stereo partly drawn)
## Output 1.88
